Data credit: patent US20040092720A1

Counts/minute bound: recorded values
target: T1, recombinant human IL-6 (human, UniProt P05231 30-212, labeled with radioactive iodine); assay: radioiodinated IL-6 on peptide array
T1 construct: Labeled probe in solution, added to wells that carry the synthetic peptides; also called IL-6 ligand; Interleukin-6
Property measured: Counts/minute bound (counts/minute)

[[record]]
binder = "SDWSEEASGITYEDRPSKAPSFWY [Peptide E32]"
property_measured = "Counts/minute bound"
numeric_value = 1160

[[record]]
binder = "IWPNVPDPSKSHIAQWSPHTPPRH [Peptide E66]"
property_measured = "Counts/minute bound"
numeric_value = 1200

[[record]]
binder = "SSCMSSSRPSISSSDENESSQNTS [Peptide E74]"
property_measured = "Counts/minute bound"
numeric_value = 1130

[[record]]
binder = "HFTIPKEQYTIINRTASSVTFTDI [Peptide E8]"
property_measured = "Counts/minute bound"
numeric_value = 1140

[[record]]
binder = "RSSFTVQDLKPFTEYVFRIRCMKE [Peptide E29]"
property_measured = "Counts/minute bound"
numeric_value = 1320

[[record]]
binder = "YLRGNLAESKCYLITVTPVYADGP [Peptide E49]"
property_measured = "Counts/minute bound"
numeric_value = 1540

[[record]]
binder = "LEQNVYGITIISGLPPEKPKNLSC [Peptide E12]"
property_measured = "Counts/minute bound"
numeric_value = 1670

